tested on: HepG2 (hepatocellular carcinoma) cell line; test: CellTiter-Glo luminescent cell viability assay, HepG2; type: cell-based, human; settings: Homo sapiens, HepG2; HepG, compound at 4 μM, 72 h
Structures can show the parent of a compound that is named as a salt.
For each record, check the reported viability at 4 µM: if it is below 90% write class 1, else write class 0.

INSERT INTO assay_data (compound, category) VALUES
  ('CC(C)NC1CCN(c2c(C#N)c(NCc3ccc(Cl)cc3)nc3ccccc23)CC1 [Compound 3174CN]', 'class 1'),
  ('N#Cc1c(NCc2ccc(Cl)cc2)nc2ccccc2c1N1CCC(N2CCOCC2)C1 (centres unmarked) [Compound 150CN]', 'class 0'),
  ('Cn1ncnc1Nc1nc2ccccc2c(N2CCC(NC(C)(C)C)CC2)c1C#N [Compound 3270CN]', 'class 1'),
  ('N#Cc1c(NCc2ccc(Cl)cc2)nc2ccccc2c1N1CCCC(Oc2ccc(F)cc2)C1 (centres unmarked) [Compound 3238CN]', 'class 0'),
  ('Cc1ccc2nc(NCc3ccc(Cl)cc3)c(C#N)c(N3CCC(NC(C)(C)C)CC3)c2c1 [Compound 418CN]', 'class 1'),
  ('Cc1cc(Nc2nc3ccccc3c(N3CCC(NC(C)(C)C)CC3)c2C#N)ccc1F [Compound 3250CN]', 'class 1'),
  ('N#Cc1c(NCc2ccc(Cl)cc2)nc2ccccc2c1N1CCCC(Oc2cccc(F)c2)C1 (centres unmarked) [Compound 3240CN]', 'class 0'),
  ('CCN(CC)C1CCCN(c2c(C#N)c(NCc3ccc(Cl)cc3)nc3ccccc23)C1 (centres unmarked) [Compound 160CN]', 'class 0'),
  ('CNC1CCN(c2c(C#N)c(NCc3ccc(Cl)cc3)nc3ccccc23)CC1 [Compound 3172CN]', 'class 1'),
  ('N#Cc1c(NCc2ccc(Cl)cc2)nc2ccccc2c1N1CCC(Oc2ccc(Cl)cc2)C1 (centres unmarked) [Compound 3336CN]', 'class 1'),
  ('N#Cc1c(NCc2ccc(Cl)cc2)nc2ccccc2c1N1CCC(Oc2ccc(F)cc2)CC1 [Compound 2942CN]', 'class 0'),
  ('CN1CCN(C2CCN(c3c(C#N)c(NCc4ccc(Cl)cc4)nc4ccccc34)CC2)CC1 [Compound 3188CN]', 'class 1'),
  ('CC(C)(C)NC1CCN(c2c(C#N)c(Nc3ccncn3)nc3ccccc23)CC1 [Compound 3282CN]', 'class 1'),
  ('N#Cc1c(NCc2ccc(Cl)cc2)nc2ccccc2c1N1CCC(N)CC1 [Compound 3170CN]', 'class 1'),
  ('CC(C)(C)NC1CCN(c2c(C#N)c(NCc3ccc(C(F)(F)F)cc3)nc3ccccc23)CC1 [Compound 3292CN]', 'class 1'),
  ('Cc1ccc(OC2CCN(c3c(C#N)c(NCc4ccc(Cl)cc4)nc4ccccc34)CC2)cc1 [Compound 2944CN]', 'class 0'),
  ('N#Cc1c(NCc2ccc(Cl)cc2)nc2ccccc2c1N1CCC(Oc2ccncc2)C1 (centres unmarked) [Compound 3344CN]', 'class 0'),
  ('CC(C)(C)NC1CCN(c2c(C#N)c(NCc3ccccc3)nc3ccccc23)CC1 [Compound 3286CN]', 'class 1'),
  ('N#Cc1c(NCc2ccc(Cl)cc2)nc2ccccc2c1N1CCC(Oc2ccc(Cl)cc2)CC1 [Compound 3226CN]', 'class 0'),
  ('CCN(CC)C1CCN(c2c(C#N)c(NCc3ccc(Cl)cc3)nc3ccccc23)C1 (centres unmarked) [Compound 126CN]', 'class 0'),
  ('Cc1ccc2c(N3CCC(NC(C)(C)C)CC3)c(C#N)c(NCc3ccc(Cl)cc3)nc2c1 [Compound 416CN]', 'class 1'),
  ('Cc1ccc(Nc2nc3ccccc3c(N3CCC(NC(C)(C)C)CC3)c2C#N)cc1 [Compound 3248CN]', 'class 0'),
  ('CC(C)(C)NC1CCN(c2c(C#N)c(NCc3ccncc3)nc3ccccc23)CC1 [Compound 3306CN]', 'class 1'),
  ('Cc1cc(CNc2nc3ccccc3c(N3CCC(NC(C)(C)C)CC3)c2C#N)ccc1Nc1nccc(-c2cccnc2)n1 [Compound 498CN]', 'class 1'),
  ('CC(C)N(Cc1ccc(Cl)cc1)c1cc(N2CCC(NC(C)(C)C)CC2)c2ccccc2n1 [Compound 216, hydrochloride]', 'class 1');
